Biological target: T1, TFAM (no MTS) (Homo sapiens, UniProt Q00059 43-246)
T1 sequence: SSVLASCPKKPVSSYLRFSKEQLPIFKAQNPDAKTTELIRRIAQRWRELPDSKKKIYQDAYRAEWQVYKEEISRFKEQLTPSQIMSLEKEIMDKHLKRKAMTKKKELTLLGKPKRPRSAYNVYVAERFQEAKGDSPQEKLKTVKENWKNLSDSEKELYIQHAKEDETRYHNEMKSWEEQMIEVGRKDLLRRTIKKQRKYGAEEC
Assay: fluorescence anisotropy; Hill n 2.64±0.22; FP: 25 mM HEPES, 10 mM Mg(OAc)2, 25 mM NaOAc, 75 mM KOAc, pH 7.5, 1 nM DNA, TFAM 0-15 nM diluted on ice (read temperature not stated); AFM oligos: on ice, 2 min
Conditions: protein: recombinant; label: 5' 6-FAM on strand 1; blunt
ENDPOINT: pKd
Answers are plain numbers, as −log10 of the molar value.

-- ask Tell me measured pKd for ND2_401 (dsDNA) DNA 1: CAAATGGGCCATTATCGAAGAATTCACAAAAAA DNA 2: TTTTTTGTGAATTCTTCGATAATGGCCCATTTG please.
-- reply 8.36

Values were extracted from paper PMC13016609.
